Values were extracted from the supplement of paper PMC4932681.

Recorded drug sensitivity score for the following compounds
Tested on: ZR-75-1
ASSAY NAME: drug sensitivity score (DSS) (DSS (dimensionless)); higher = more sensitive; extreme values may be limits of the assay
EXPERIMENTAL PARAMETERS: 4-OH-tamoxifen in medium 1 µM; 72 h
Response field accepts a number only; no unit should be typed.

Worked examples, 2 compounds total:
compound=C#Cc1cccc(Nc2ncnc3cc(OC)c(OCCCCCCC(=O)NO)cc23)c1 experimental_readout="drug sensitivity score" recorded_measurement=4.14
compound=Nc1ccn([C@@H]2O[C@H](CO)[C@@H](O)[C@@H]2O)c(=O)n1 experimental_readout="drug sensitivity score" recorded_measurement=0.265

-- ask Item under review: C=CCn1c(=O)c2cnc(Nc3ccc(N4CCN(C)CC4)cc3)nc2n1-c1cccc(C(C)(C)O)n1 . Reported drug sensitivity score?
-- reply 0.472

-- ask Item under review: Cn1cnc2c(F)c(Nc3ccc(Br)cc3F)c(C(=O)NOCCO)cc21 . Reported drug sensitivity score?
-- reply 0

-- ask Item under review: Cn1c(Nc2ccc(C(F)(F)F)cc2)nc2cc(Oc3ccnc(-c4ncc(C(F)(F)F)[nH]4)c3)ccc21 . Reported drug sensitivity score?
-- reply 0

---

Recorded drug sensitivity score for the following compounds
Test system: MCF-7
ASSAY NAME: drug sensitivity score (DSS) (DSS (dimensionless)); higher = more sensitive; extreme values may be limits of the assay
EXPERIMENTAL PARAMETERS: 4-OH-tamoxifen in medium 1 µM; 72 h
Response field accepts a number only; no unit should be typed.

Worked examples, 3 compounds total:
chem_smiles=C=CCN(/C=C1/C(=O)O[C@H](COC)[C@@]2(C)C1=C(O)C(=O)C1=C2[C@H](OC(C)=O)C[C@]2(C)C(=O)CC[C@@H]12)CC=C recorded_measurement=0
chem_smiles=Oc1ncnc2[nH]ncc12 recorded_measurement=0
chem_smiles=O=C(c1cc(Cc2n[nH]c(=O)c3ccccc23)ccc1F)N1CCN(C(=O)C2CC2)CC1 recorded_measurement=0.285

Could you now consider this next compound?
-- ask Item under review: NC(=O)c1ccc(I)c([N+](=O)[O-])c1 . Reported drug sensitivity score?
-- reply 0

---

System: MCF-7
ASSAY NAME: relative IC50 (midpoint of fitted logistic curve, plateau may be below 50% inhibition; CellTiter-Glo viability); higher = less potent
EXPERIMENTAL PARAMETERS: 4-OH-tamoxifen in medium 1 µM; 72 h
Recorded relative IC50 for the following molecules
Hi! Could you send only the number? It should be in nM, unit omitted.

Worked examples, 2 molecules total:
molecule="CC(C)C[C@H](NC(=O)[C@H](CCc1ccccc1)NC(=O)CN1CCOCC1)C(=O)N[C@@H](Cc1ccccc1)C(=O)N[C@@H](CC(C)C)C(=O)[C@@]1(C)CO1 [Carfilzomib]" recorded_measurement=15.8
molecule="C=CCNC1=C2C[C@@H](C)C[C@H](OC)[C@H](O)[C@@H](C)/C=C(\\C)[C@H](OC(N)=O)[C@@H](OC)/C=C\\C=C(/C)C(=O)NC(=CC1=O)C2=O [Tanespimycin (17-AAG)]" recorded_measurement=65.6

Could you now consider this next molecule?
-- ask Item under review: COc1cc2ncnc(Nc3ccc(F)c(Cl)c3)c2cc1OCCCN1CCOCC1 [Gefitinib] . Reported relative IC50?
-- reply 4190

---

System: BT-474 Tam2
ASSAY NAME: relative IC50 (midpoint of fitted logistic curve, plateau may be below 50% inhibition; CellTiter-Glo viability); higher = less potent
EXPERIMENTAL PARAMETERS: 4-OH-tamoxifen in medium 1 µM; 72 h
Counter-ions that a name gives are not always drawn.
EXPERIMENTAL READOUT: relative IC50 (nM)
Hi! Could you send only the number? It should be in nM, unit omitted.

Worked examples, 3 compounds total:
compound=CN(C)C[C@@H]1CCn2cc(c3ccccc32)C2=C(C(=O)NC2=O)c2cn(c3ccccc23)CCO1 experimental_readout="relative IC50" recorded_measurement=2610
compound="CS(=O)(=O)CCNCc1ccc(-c2ccc3ncnc(Nc4ccc(OCc5cccc(F)c5)c(Cl)c4)c3c2)o1 [Lapatinib]" experimental_readout="relative IC50" recorded_measurement=65.9
compound="CC/C(=C(\\c1ccccc1)c1ccc(OCCN(C)C)cc1)c1ccccc1 [Tamoxifen citrate]" experimental_readout="relative IC50" recorded_measurement=3610

Could you now consider this next compound?
-- ask Item under review: O=C(/C=C/c1cccc(S(=O)(=O)Nc2ccccc2)c1)NO [Belinostat (PXD101)] . Reported relative IC50?
-- reply 870

---

Test system: ZR-75-1
ASSAY NAME: drug sensitivity score (DSS) (DSS (dimensionless)); higher = more sensitive; extreme values may be limits of the assay
EXPERIMENTAL PARAMETERS: 4-OH-tamoxifen in medium 1 µM; 72 h
EXPERIMENTAL READOUT: drug sensitivity score
Response field accepts a number only; no unit should be typed.

Worked examples, 8 compounds total:
compound="COCC1(CO)C(=O)C2CCN1CC2 (centres undefined)" recorded_measurement=0
compound=Nc1nc(Cl)nc2c1ncn2[C@H]1C[C@H](O)[C@@H](CO)O1 recorded_measurement=0.126
compound=Cn1c(=O)n(-c2ccc(C(C)(C)C#N)cc2)c2c3cc(-c4cnc5ccccc5c4)ccc3ncc21 recorded_measurement=10.4
compound=CO[C@H]1C[C@@H]2CC[C@@H](C)[C@@](O)(O2)C(=O)C(=O)N2CCCC[C@H]2C(=O)O[C@H]([C@H](C)C[C@@H]2CC[C@@H](OCCO)[C@H](OC)C2)CC(=O)[C@H](C)/C=C(\C)[C@@H](O)[C@@H](OC)C(=O)[C@H](C)C[C@H](C)/C=C/C=C/C=C/1C recorded_measurement=4.22
compound=CNCc1ccc(-c2[nH]c3cc(F)cc4c3c2CCNC4=O)cc1 recorded_measurement=0
compound=C[C@]12C=CC(=O)C=C1CC[C@@H]1[C@@H]2C(=O)C[C@@]2(C)[C@H]1CC[C@]2(O)C(=O)CO recorded_measurement=0
compound=Cc1cc2c(F)c(Oc3ncnn4cc(OC[C@@H](C)O)c(C)c34)ccc2[nH]1 recorded_measurement=0
compound=O=P(O)(O)C(O)(Cn1ccnc1)P(=O)(O)O recorded_measurement=0

-- ask Item under review: COc1c2occc2cc2ccc(=O)oc12 . Reported drug sensitivity score?
-- reply 0

-- ask Item under review: CC[C@@]1(O)C(=O)OCc2c1cc1n(c2=O)Cc2cc3c(CN(C)C)c(O)ccc3nc2-1 . Reported drug sensitivity score?
-- reply 3.54

-- ask Item under review: COc1cc2c(Oc3ccc4[nH]c(C)cc4c3F)ncnc2cc1OCCCN1CCCC1 . Reported drug sensitivity score?
-- reply 0

-- ask Item under review: N#CC[C@H](C1CCCC1)n1cc(-c2ncnc3[nH]ccc23)cn1 . Reported drug sensitivity score?
-- reply 0

-- ask Item under review: Cc1c(N)nc([C@H](CC(N)=O)NC[C@H](N)C(N)=O)nc1C(=O)N[C@H](C(=O)N[C@H](C)[C@@H](O)[C@H](C)C(=O)N[C@H](C(=O)NCCc1nc(-c2nc(C(=O)NCCC[S+](C)C)cs2)cs1)[C@@H](C)O)[C@@H](OC1OC(CO)C(O)C(O)C1OC1OC(CO)C(O)C(OC(N)=O)C1O)c1cnc[nH]1 (some centres undefined) . Reported drug sensitivity score?
-- reply 0

-- ask Item under review: C[C@]12CC[C@@H]3c4ccc(OC(=O)N(CCCl)CCCl)cc4CC[C@H]3[C@@H]1CC[C@@H]2O . Reported drug sensitivity score?
-- reply 0

---

Recorded viability inhibition at highest dose for the following molecules
System: ZR-75-1 Tam2
ASSAY NAME: viability inhibition at highest dose (% inhibition); higher = more growth inhibition
EXPERIMENTAL PARAMETERS: 4-OH-tamoxifen in medium 1 µM; 72 h
Response field accepts a number only; no unit should be typed.

Worked examples, 4 molecules total:
molecule="CS(=O)(=O)c1ccc(C(=O)Nc2ccc(Cl)c(-c3ccccn3)c2)c(Cl)c1 [Vismodegib] (drug 10000 nM)" tgt="ZR-75-1 Tam2" experimental_readout="viability inhibition at highest dose" recorded_measurement=10.7
molecule="Cc1ccc(C(=O)Nc2ccc(CN3CCN(C)CC3)c(C(F)(F)F)c2)cc1C#Cc1cnc2cccnn12 (drug 1000 nM)" tgt="ZR-75-1 Tam2" experimental_readout="viability inhibition at highest dose" recorded_measurement=12
molecule="CN(Cc1cnc2nc(N)nc(N)c2n1)c1ccc(C(=O)N[C@@H](CCC(=O)O)C(=O)O)cc1 [Methotrexate] (drug 10000 nM)" tgt="ZR-75-1 Tam2" experimental_readout="viability inhibition at highest dose" recorded_measurement=10.5
molecule="Cc1ccc(NC(=O)c2ccc(CN3CCN(C)CC3)cc2)cc1Nc1nccc(-c2cccnc2)n1 [Imatinib] (drug 10000 nM)" tgt="ZR-75-1 Tam2" experimental_readout="viability inhibition at highest dose" recorded_measurement=8.38

-- ask Item under review: Cc1cc(Nc2nc(N[C@@H](C)c3ncc(F)cn3)ncc2Cl)[nH]n1 [AZD1480] (drug 1000 nM) . Reported viability inhibition at highest dose?
-- reply -3.72

-- ask Item under review: CCC/C=C/C=C/C(=O)O[C@H]1/C(=C/C(=O)OC)C[C@H]2C[C@H]([C@@H](C)O)OC(=O)C[C@H](O)C[C@@H]3C[C@H](OC(C)=O)C(C)(C)[C@](O)(C[C@@H]4C/C(=C/C(=O)OC)C[C@H](/C=C/C(C)(C)[C@]1(O)O2)O4)O3 [Bryostatin 1] (drug 100 nM) . Reported viability inhibition at highest dose?
-- reply 3.49

-- ask Item under review: CC[C@@H]1C(=O)N(C)c2cnc(Nc3ccc(C(=O)N[C@H]4CC[C@H](N5CCN(CC6CC6)CC5)CC4)cc3OC)nc2N1C(C)C [Volasertib (BI 6727)] (drug 1000 nM) . Reported viability inhibition at highest dose?
-- reply 18.7

-- ask Item under review: COc1cc2nccc(Oc3ccc(NC(=O)Nc4cc(C)on4)c(Cl)c3)c2cc1OC [Tivozanib (AV-951)] (drug 10000 nM) . Reported viability inhibition at highest dose?
-- reply 11.2

-- ask Item under review: COCC[n+]1c2c(n(Cc3cnccn3)c1C)C(=O)c1ccccc1C2=O [YM155] (drug 10000 nM) . Reported viability inhibition at highest dose?
-- reply 95.8
